Target: NR1/NR2C (Rattus norvegicus, UniProt P35439+Q00961)
Sequence (Q00961 20-1237, other chains not shown): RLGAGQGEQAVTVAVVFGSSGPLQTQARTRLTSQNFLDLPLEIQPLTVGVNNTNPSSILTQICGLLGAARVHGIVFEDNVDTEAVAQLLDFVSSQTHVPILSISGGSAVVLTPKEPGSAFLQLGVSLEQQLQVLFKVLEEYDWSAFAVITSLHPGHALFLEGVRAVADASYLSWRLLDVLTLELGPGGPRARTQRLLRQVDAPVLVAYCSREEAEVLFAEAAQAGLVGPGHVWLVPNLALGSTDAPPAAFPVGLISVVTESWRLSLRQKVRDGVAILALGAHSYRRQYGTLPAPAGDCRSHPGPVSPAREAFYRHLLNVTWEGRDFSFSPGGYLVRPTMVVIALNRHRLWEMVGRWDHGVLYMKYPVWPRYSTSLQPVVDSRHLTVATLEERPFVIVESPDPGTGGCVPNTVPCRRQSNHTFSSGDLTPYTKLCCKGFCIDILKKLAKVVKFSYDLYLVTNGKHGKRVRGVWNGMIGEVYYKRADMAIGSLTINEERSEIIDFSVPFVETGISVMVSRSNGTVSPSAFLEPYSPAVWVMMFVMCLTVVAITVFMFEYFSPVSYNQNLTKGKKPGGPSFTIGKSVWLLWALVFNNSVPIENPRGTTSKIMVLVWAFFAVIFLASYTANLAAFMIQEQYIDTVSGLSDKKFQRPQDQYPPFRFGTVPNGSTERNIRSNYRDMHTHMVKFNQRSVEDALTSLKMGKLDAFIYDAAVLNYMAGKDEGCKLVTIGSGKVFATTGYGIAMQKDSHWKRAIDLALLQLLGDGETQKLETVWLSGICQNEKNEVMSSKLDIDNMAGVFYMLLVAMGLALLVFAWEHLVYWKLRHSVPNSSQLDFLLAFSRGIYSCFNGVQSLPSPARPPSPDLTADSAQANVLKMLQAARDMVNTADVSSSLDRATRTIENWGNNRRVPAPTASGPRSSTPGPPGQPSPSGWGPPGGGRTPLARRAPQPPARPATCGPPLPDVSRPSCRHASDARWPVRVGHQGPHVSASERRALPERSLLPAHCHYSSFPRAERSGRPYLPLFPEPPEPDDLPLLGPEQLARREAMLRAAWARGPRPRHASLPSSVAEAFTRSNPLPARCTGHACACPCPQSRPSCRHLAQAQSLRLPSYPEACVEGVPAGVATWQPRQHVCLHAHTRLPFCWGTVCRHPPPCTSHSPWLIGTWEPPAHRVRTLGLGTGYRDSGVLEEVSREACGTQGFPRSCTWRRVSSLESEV
Assay: Two electrode voltage clamp recording from Xenopus laevis oocytes
Conditions: read-out: EC50 for glutamate
pEC50: −log10 of the molar value.
ASSAY READOUT: pEC50

>>> quantitative_readout("N[C@@H](CCC(=O)O)C(=O)O [glutamate]")
6.38
